The values you see were collected from the supplement of paper PMC10567573.

protein stability index: recorded values
B1: CCDC6 (parent)
chain: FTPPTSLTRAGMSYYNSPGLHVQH

variants of: B1; assay: protein stability index of a GFP-peptide fusion (GPS, HEK-293T) (PSI 1-6); higher = more stable; conditions: c terminus: a fixed tail appended;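 note: lentivirally expressed fusions sorted by FACS into six bins by GFP to DsRed ratio, PSI derived from sequencing read proportions per bin multiplied by bin number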
Quick one: just the number, no unit, thanks!

Some variants with recorded protein stability index:
H24A    1.56
T2S    1.5
G11A    1.96
S6G    2
F1D    3.56

Lab note: measured protein stability index of G11E was 1.84

Lab note: measured protein stability index of S13K was 2.11

Lab note: measured protein stability index of P18V was 2.27

Lab note: measured protein stability index of A10E was 2.15

Lab note: measured protein stability index of V22D was 1.86

Lab note: measured protein stability index of Y15F was 2.5

Lab note: measured protein stability index of Y15P was 2.57

Lab note: measured protein stability index of L20D was 2.02

Lab note: measured protein stability index of G19H was 1.96

Lab note: measured protein stability index of M12K was 2.2

Lab note: measured protein stability index of P4C was 2.3

Lab note: measured protein stability index of L20M was 1.8
